All figures here come from ChEMBL document CHEMBL1128508.

Tested on: Rattus norvegicus
Assay: Ratio of the biodistribution in tumor to blood 24 hours after iv injection in walker tumor bearing rat
Format: ADME, organism-based
Conditions: tumour
Give measured ID/g for each item. Keep answers brief.
Answers are plain numbers.

compound	experimental readout	result
COC(COCCCCCCCCCCCCc1cccc(I)c1)COP(=O)([O-])OCC[N+](C)(C)C (racemic)	ID/g	12.1
CO[C@@H](COCCCCCCCCCCCCc1cccc(I)c1)COP(=O)([O-])OCC[N+](C)(C)C	ID/g	11.1

As a next step, examine the compound that follows.
Form entry - test system: Rattus norvegicus; read-out: ID/g; compound: CO[C@H](COCCCCCCCCCCCCc1cccc(I)c1)COP(=O)([O-])OCC[N+](C)(C)C
11

* * *

Tested on: Rattus norvegicus
Assay: Ratio of the biodistribution in tumor to liver 48 hours after iv injection in walker tumor bearing rat
Format: ADME, organism-based
Details: in vivo
Give measured ID/g for each item. Keep answers brief.
Answers are plain numbers.

Answered examples (2):
molecule	result
CO[C@@H](COCCCCCCCCCCCCc1cccc(I)c1)COP(=O)([O-])OCC[N+](C)(C)C	2
CO[C@H](COCCCCCCCCCCCCc1cccc(I)c1)COP(=O)([O-])OCC[N+](C)(C)C	1.7

As a next step, examine the molecule that follows.
Please report the recorded ID/g for COC(COCCCCCCCCCCCCc1cccc(I)c1)COP(=O)([O-])OCC[N+](C)(C)C (racemic) .
1.6

* * *

System: Rattus norvegicus
Assay: Ratio of the biodistribution in tumor to blood 48 hours after iv injection in walker tumor bearing rat
Type: ADME, organism-based
Details: in vivo
Give measured ID/g for each item. Keep answers brief.
Give bare numbers.

compound	measured target	ID/g
COC(COCCCCCCCCCCCCc1cccc(I)c1)COP(=O)([O-])OCC[N+](C)(C)C (racemic)	Rattus norvegicus	11.2
CO[C@H](COCCCCCCCCCCCCc1cccc(I)c1)COP(=O)([O-])OCC[N+](C)(C)C	Rattus norvegicus	14.3

As a next step, examine the compound that follows.
Please report the recorded ID/g for CO[C@@H](COCCCCCCCCCCCCc1cccc(I)c1)COP(=O)([O-])OCC[N+](C)(C)C .
15
